Assay: molar heat capacity at constant pressure
Details: 288.15 K; 101.33 kPa; Crystal; Small sample (50 mg) DSC
ENDPOINT: molar heat capacity at constant pressure (J/K/mol)

MOLECULE | REPORTED_RESULT
OC[C@@H](O)[C@@H](O)[C@H](O)[C@H](O)CO | 222.53
O[C@H]1[C@H](O)[C@@H](O)[C@H](O)[C@@H](O)[C@H]1O [cis-1,2,3,5-trans-4,6-cyclohexanehexol] | 209.73
OC[C@@H](O)[C@@H](O)CO | 158.65
OC[C@@H](O)C(O)[C@H](O)CO | 193.55
OC[C@@H](O)[C@H](O)[C@@H](O)CO | 201.79
OC[C@H](O)C(O)[C@@H](O)CO [L-(-)-arabitol] | 200.05

----------
Test: molar heat capacity at constant pressure
Conditions: 332.15 K; 101.33 kPa; Crystal; Small sample (50 mg) DSC
ENDPOINT: molar heat capacity at constant pressure (J/K/mol)

COMPOUND | REPORTED_RESULT
OC[C@@H](O)[C@@H](O)CO | 185.74
O[C@H]1[C@H](O)[C@@H](O)[C@H](O)[C@@H](O)[C@H]1O [cis-1,2,3,5-trans-4,6-cyclohexanehexol] | 247.89
OC[C@@H](O)[C@H](O)[C@@H](O)CO | 238.2
OC[C@@H](O)[C@@H](O)[C@H](O)[C@H](O)CO | 260.73
OC[C@H](O)C(O)[C@@H](O)CO [L-(-)-arabitol] | 239.92
OC[C@@H](O)C(O)[C@H](O)CO | 232.16

----------
Experiment: molar heat capacity at constant pressure
Conditions: 335 K; 101.33 kPa; Crystal; Small sample (50 mg) DSC
ENDPOINT: molar heat capacity at constant pressure (J/K/mol)

COMPOUND | ENDPOINT | REPORTED_RESULT
OC[C@@H](O)C(O)[C@H](O)CO [D-arabitol] | molar heat capacity at constant pressure | 234.75
O[C@H]1[C@H](O)[C@@H](O)[C@H](O)[C@@H](O)[C@H]1O [cis-1,2,3,5-trans-4,6-cyclohexanehexol] | molar heat capacity at constant pressure | 250.49
OC[C@H](O)C(O)[C@@H](O)CO [L-(-)-arabitol] | molar heat capacity at constant pressure | 243.8
OC[C@@H](O)[C@@H](O)[C@H](O)[C@H](O)CO [D-mannitol] | molar heat capacity at constant pressure | 263.16
OC[C@@H](O)[C@@H](O)CO [meso-1,2,3,4-butanetetrol] | molar heat capacity at constant pressure | 187.15
OC[C@@H](O)[C@H](O)[C@@H](O)CO [xylitol] | molar heat capacity at constant pressure | 240.51

----------
Assay: molar heat capacity at constant pressure
Details: 318.15 K; 101.33 kPa; Crystal; Small sample (50 mg) DSC
# 1 = molar heat capacity at constant pressure below 200 J/K/mol (exclusive); 0 = molar heat capacity at constant pressure at/above 200 J/K/mol

MOLECULE | LABEL_VALUE
OC[C@H](O)C(O)[C@@H](O)CO [L-(-)-arabitol] | 0
OC[C@@H](O)[C@@H](O)CO [meso-1,2,3,4-butanetetrol] | 1
OC[C@@H](O)C(O)[C@H](O)CO [D-arabitol] | 0
OC[C@@H](O)[C@@H](O)[C@H](O)[C@H](O)CO [D-mannitol] | 0
O[C@H]1[C@H](O)[C@@H](O)[C@H](O)[C@@H](O)[C@H]1O [cis-1,2,3,5-trans-4,6-cyclohexanehexol] | 0
OC[C@@H](O)[C@H](O)[C@@H](O)CO [xylitol] | 0

----------
Assay: molar heat capacity at constant pressure
Conditions: 210.15 K; 101.33 kPa; Crystal; Small sample (50 mg) DSC

MOLECULE | molar heat capacity at constant pressure [J/K/mol]
OC[C@@H](O)[C@@H](O)CO | 118.46
OC[C@@H](O)C(O)[C@H](O)CO | 141.94
OC[C@H](O)C(O)[C@@H](O)CO [L-(-)-arabitol] | 146.38
O[C@H]1[C@H](O)[C@@H](O)[C@H](O)[C@@H](O)[C@H]1O [cis-1,2,3,5-trans-4,6-cyclohexanehexol] | 150.93
OC[C@@H](O)[C@@H](O)[C@H](O)[C@H](O)CO | 164.68
OC[C@@H](O)[C@H](O)[C@@H](O)CO | 147.83

----------
Settings: 305 K; 101.33 kPa; Crystal; Small sample (50 mg) DSC
Label T when molar entropy is at or above 200 J/K/mol; anything below gets F.

MOLECULE | LABEL_VALUE
OC[C@@H](O)[C@@H](O)[C@H](O)[C@H](O)CO [D-mannitol] | T
OC[C@H](O)C(O)[C@@H](O)CO [L-(-)-arabitol] | T
OC[C@@H](O)[C@@H](O)CO [meso-1,2,3,4-butanetetrol] | F

----------
Assay: molar heat capacity at constant pressure
Conditions: 9 K; 101.33 kPa; Crystal; relaxation calorimetry
Reported molar heat capacity at constant pressure values for the following compounds.

COMPOUND | molar heat capacity at constant pressure, J/K/mol
O[C@H]1[C@H](O)[C@@H](O)[C@H](O)[C@@H](O)[C@H]1O [cis-1,2,3,5-trans-4,6-cyclohexanehexol] | 1.113
OC[C@H](O)C(O)[C@@H](O)CO [L-(-)-arabitol] | 0.6348
OC[C@@H](O)[C@@H](O)[C@H](O)[C@H](O)CO [D-mannitol] | 0.7614
OC[C@@H](O)[C@H](O)[C@@H](O)CO [xylitol] | 0.7186
OC[C@@H](O)[C@@H](O)CO [meso-1,2,3,4-butanetetrol] | 0.6863
OC[C@@H](O)C(O)[C@H](O)CO [D-arabitol] | 0.6157

----------
Experiment: molar heat capacity at constant pressure
Conditions: 269.15 K; 101.33 kPa; Crystal; Small sample (50 mg) DSC
Numbers after ± are expanded uncertainties.
Reported molar heat capacity at constant pressure values for the following molecules.

MOLECULE | molar heat capacity at constant pressure
O[C@H]1[C@H](O)[C@@H](O)[C@H](O)[C@@H](O)[C@H]1O [cis-1,2,3,5-trans-4,6-cyclohexanehexol] | 195.58 ± 28 J/K/mol
OC[C@@H](O)[C@@H](O)CO | 148.57 ± 18 J/K/mol
OC[C@@H](O)[C@H](O)[C@@H](O)CO | 188.3 ± 12 J/K/mol
OC[C@@H](O)C(O)[C@H](O)CO | 180.14 ± 15 J/K/mol
OC[C@H](O)C(O)[C@@H](O)CO [L-(-)-arabitol] | 187.58 ± 38 J/K/mol
OC[C@@H](O)[C@@H](O)[C@H](O)[C@H](O)CO | 208.64 ± 34 J/K/mol

----------
Reported molar heat capacity at constant pressure values for the following compounds.
Assay: molar heat capacity at constant pressure
Details: 190 K; 101.33 kPa; Crystal; relaxation calorimetry
ENDPOINT: molar heat capacity at constant pressure (J/K/mol)

COMPOUND | REPORTED_RESULT
OC[C@@H](O)[C@@H](O)CO [meso-1,2,3,4-butanetetrol] | 110.37
OC[C@@H](O)[C@@H](O)[C@H](O)[C@H](O)CO [D-mannitol] | 153.2
OC[C@H](O)C(O)[C@@H](O)CO [L-(-)-arabitol] | 136.16
OC[C@@H](O)C(O)[C@H](O)CO [D-arabitol] | 134.84
OC[C@@H](O)[C@H](O)[C@@H](O)CO [xylitol] | 136.19
O[C@H]1[C@H](O)[C@@H](O)[C@H](O)[C@@H](O)[C@H]1O [cis-1,2,3,5-trans-4,6-cyclohexanehexol] | 138.61

----------
Assay: molar heat capacity at constant pressure
Details: 225.15 K; 101.33 kPa; Crystal; Small sample (50 mg) DSC
Numbers after ± are expanded uncertainties.
ENDPOINT: molar heat capacity at constant pressure

COMPOUND | REPORTED_RESULT
OC[C@@H](O)[C@@H](O)[C@H](O)[C@H](O)CO | 176.52 ± 28 J/K/mol
OC[C@H](O)C(O)[C@@H](O)CO [L-(-)-arabitol] | 156.64 ± 31 J/K/mol
O[C@H]1[C@H](O)[C@@H](O)[C@H](O)[C@@H](O)[C@H]1O [cis-1,2,3,5-trans-4,6-cyclohexanehexol] | 162.58 ± 23 J/K/mol
OC[C@@H](O)[C@H](O)[C@@H](O)CO | 158.24 ± 9.8 J/K/mol
OC[C@@H](O)[C@@H](O)CO | 126.32 ± 15 J/K/mol
OC[C@@H](O)C(O)[C@H](O)CO | 152.01 ± 12 J/K/mol

----------
Experiment: molar heat capacity at constant pressure
Conditions: 313.15 K; 101.33 kPa; Crystal; Small sample (50 mg) DSC
Label TRUE when molar heat capacity at constant pressure is at or above 200 J/K/mol; anything below gets FALSE.

COMPOUND | LABEL_VALUE
OC[C@H](O)C(O)[C@@H](O)CO [L-(-)-arabitol] | TRUE
OC[C@@H](O)C(O)[C@H](O)CO [D-arabitol] | TRUE
OC[C@@H](O)[C@H](O)[C@@H](O)CO [xylitol] | TRUE
O[C@H]1[C@H](O)[C@@H](O)[C@H](O)[C@@H](O)[C@H]1O [cis-1,2,3,5-trans-4,6-cyclohexanehexol] | TRUE
OC[C@@H](O)[C@@H](O)[C@H](O)[C@H](O)CO [D-mannitol] | TRUE
OC[C@@H](O)[C@@H](O)CO [meso-1,2,3,4-butanetetrol] | FALSE
